These data points were gathered from patent US8846704B2.

Dear all, this message contains IC50 results, target or system human JAK3 (Homo sapiens).

Reference set (4 entries):
Nc1ccc(Sc2nc(Nc3ccc(N4CCOCC4)cc3)ncc2I)cc1: < 0.5 µM
C=CC(=O)Nc1ccc(Sc2nc(Nc3cccc(N4CCOCC4)c3)ncc2F)cc1: < 0.1 µM
Nc1ccc(Sc2nc(Nc3ccc(N4CCOCC4)cc3)ncc2F)cc1: < 0.5 µM
Cc1cnc(Nc2ccc(N3CCOCC3)cc2)nc1Sc1ccc(CO)cc1: < 0.1 µM

(Q) State recorded IC50 with human JAK3 (Homo sapiens), entry C=CC(=O)Nc1ccc(Sc2nc(Nc3cccc(OC)c3)ncc2C)cc1 , no comment.
Sequence (P52333 822-1111 limits assumed): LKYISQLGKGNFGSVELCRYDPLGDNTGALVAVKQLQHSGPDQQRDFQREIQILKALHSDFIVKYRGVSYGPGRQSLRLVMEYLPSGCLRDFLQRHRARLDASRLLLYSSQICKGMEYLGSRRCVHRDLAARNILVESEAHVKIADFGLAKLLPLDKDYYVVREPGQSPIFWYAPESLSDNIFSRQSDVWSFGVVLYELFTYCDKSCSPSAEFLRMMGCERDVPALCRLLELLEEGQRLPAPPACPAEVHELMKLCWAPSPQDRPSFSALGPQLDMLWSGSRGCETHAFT
(A) < 0.1 µM

(Q) Give IC50 for this entry on human JAK3 (Homo sapiens): Cc1cnc(Nc2ccc(N3CCOCC3)cc2)nc1Sc1ccc(Cn2cnc(C#N)c2C#N)cc1
(A) < 0.5 µM

(Q) // fetch IC50 for C=CC(=O)Nc1ccc(Sc2nc(Nc3cccc(CO)c3)ncc2C)cc1 ; system: human JAK3 (Homo sapiens)
(A) < 0.1 µM

(Q) Enter recorded IC50 with human JAK3 (Homo sapiens) for C=CC(=O)Nc1ccc(Sc2nc(Nc3ccc(N4CCOCC4)c(OC)c3)ncc2C)cc1 here.
(A) < 0.1 µM

(Q) Find the measured IC50 of CNC(=O)CCC(=O)Nc1ccc(Sc2nc(Nc3ccc(N4CCOCC4)cc3)ncc2C)cc1 with human JAK3 (Homo sapiens) as test system.
(A) < 0.5 µM

(Q) Give the observed IC50 of Cc1cnc(Nc2ccc(N3CCOCC3)cc2)nc1Sc1ccc(N2C(=O)COCC2=O)cc1 for human JAK3 (Homo sapiens).
(A) < 0.1 µM
